For each of the sequences below, state its log2 fold change of degron read counts.
Target: T1, CRBN, Q96SW2;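 also: pooled lentiviral library of zinc finger degron-EGFP fusions in mCherry-positive Jurkat cells, FACS-sorted after compound exposure, with degron abundance counted by next-generation sequencing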
T1 chain: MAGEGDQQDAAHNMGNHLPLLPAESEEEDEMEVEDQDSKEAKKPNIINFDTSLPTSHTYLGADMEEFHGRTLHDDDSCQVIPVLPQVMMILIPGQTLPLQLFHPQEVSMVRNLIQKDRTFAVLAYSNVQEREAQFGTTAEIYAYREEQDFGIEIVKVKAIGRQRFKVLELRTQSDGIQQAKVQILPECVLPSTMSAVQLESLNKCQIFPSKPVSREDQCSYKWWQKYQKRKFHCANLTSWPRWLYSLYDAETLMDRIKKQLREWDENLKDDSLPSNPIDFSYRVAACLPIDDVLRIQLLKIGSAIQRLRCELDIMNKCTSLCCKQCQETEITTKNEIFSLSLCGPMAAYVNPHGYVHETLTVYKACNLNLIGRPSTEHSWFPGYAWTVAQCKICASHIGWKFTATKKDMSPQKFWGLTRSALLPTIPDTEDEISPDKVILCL
Experiment: log2 fold change of degron read counts, EGFP-low vs EGFP+ sorted cells (limma voom), compound-induced degradation; higher = more compound-induced degradation of the degron-EGFP fusion; degrons are variants of IKZF1/3 zinc finger 2; compound dose not given here
Settings: Jurkat; 18 h; compound: compound 19 (5-tert-butyl-thalidomide)
The full ranking holds about 8,300 sequences; the median of “log2 fold change of degron read counts, EGFP-low vs EGFP+ sorted cells (limma voom), compound-induced degradation” is about -1.1, and the highest 2% start at about 3.2. For the sample, the highest values were picked, then their nearest neighbours and some sequences at random.
Answers are plain numbers.

The following sequences have reported results that may help.
FWCEQCGAQFTQKGNLLRHIKL [46F_47W_49E_50Q_52G_53A_54Q_55F_67L_, Q9UKT9]    0.92
FECEVCGANFTQKGNLLRHIKL [46F_47E_49E_50V_52G_53A_54N_55F_67L_, Q9UKT9]    -0.492
FMCEVCGANFTQKGNLLRHIKL [46F_47M_49E_50V_52G_53A_54N_55F_67L_, Q9UKT9]    -0.728
FQCEVCGANFTQKGNLLRHIKL [46F_47Q_49E_50V_52G_53A_54N_55F_67L_, Q9UKT9]    0.104
FVCEVCGANFTQKGNLLRHIKL [46F_47V_49E_50V_52G_53A_54N_55F_67L_, Q9UKT9]    -0.0108

Hey, can you go through the list below and give me log2 fold change of degron read counts for every item?
1. FTCDVCGAMFTQKGNLLRHIKL [46F_47T_49D_50V_52G_53A_54M_55F_67L_, Q9UKT9]
2. FNCEVCGANFTQKGNLLRHIKL [46F_47N_49E_50V_52G_53A_54N_55F_67L_, Q9UKT9]

Result block:
-1.4
2.09

Reference source for all entries: the supplement of paper PMC12645437
